Item-by-item account of IC50
- Subject Of Test: Escherichia coli DNA gyrase A/B tetramer (Escherichia coli, UniProt P0AES4+P0AES6)
- Assay Text: DNA gyrase supercoiling activity fluorescence polarisation assay
- Format: biochemical

Use these answered entries as a reference point.
Cc1noc(C)c1-c1cnc2c(c1)CC1(C(=O)NC(=O)NC1=O)[C@H]1[C@H](C)O[C@H](C)CN21 (relative stereo) [Example 49]    30 µM
C[C@@H]1CN2c3ncc(-c4ccc(N5CCOCC5)nc4)cc3CC3(C(=O)NC(=O)NC3=O)[C@H]2[C@H](C)O1 (relative stereo) [Example 111]    23 µM
C[C@@H]1CN2c3ncc(-c4cncs4)cc3CC3(C(=O)NC(=O)NC3=O)[C@H]2[C@H](C)O1 (relative stereo) [Example 26]    4 µM
C[C@@H]1CN2c3ncc(Br)cc3CC3(C(=O)NC(=O)NC3=O)[C@H]2[C@H](C)O1 (relative stereo) [Example 9]    3 µM
C[C@@H]1CN2c3ccc(-c4cnccn4)nc3CC3(C(=O)NC(=O)NC3=O)[C@H]2[C@H](C)O1 (relative stereo) [Example 80]    > 5 µM

API: the following record is the query input.
Query block: Recorded IC50 of C[C@@H]1CN2c3ncc(-c4ccccn4)cc3CC3(C(=O)NC(=O)NC3=O)[C@H]2[C@H](C)O1 (relative stereo) [Example 38] , please.
Result block: 12 µM

---

- Subject Of Test: Escherichia coli DNA gyrase A/B tetramer (Escherichia coli, UniProt P0AES4+P0AES6)
- Assay Text: DNA gyrase supercoiling activity fluorescence polarisation assay
- Format: biochemical
Quantity: IC50

C[C@@H]1CN2c3c(ccnc3Cl)CC3(C(=O)NC(=O)NC3=O)[C@H]2[C@H](C)O1 (relative stereo)    21 µM

Consider now this further molecule.
Query block: Any idea what IC50 came out for C[C@@H]1CN2c3cnc(-c4cn[nH]c4)cc3CC3(C(=O)NC(=O)NC3=O)[C@H]2[C@H](C)O1 (relative stereo) on Escherichia coli DNA gyrase A/B tetramer (Escherichia coli, UniProt P0AES4+P0AES6)?
Result block: 50 µM

---

- Subject Of Test: Escherichia coli DNA gyrase A/B tetramer (Escherichia coli, UniProt P0AES4+P0AES6)
- Assay Text: DNA gyrase supercoiling activity fluorescence polarisation assay
- Assay type: biochemical
- Experimental: The supercoiling reactions may be quenched by the addition of 10 microliters/well of 40 nM oligodeoxynucleotide probe in 3× triplex-forming buffer consisting of 150 mM NaCl, and 150 mM sodium acetate at pH 3.5. […] After 60 minutes, the fluorescence anisotropy of the BODIPY-FL may be measured in a Tecan Ultra plate reader, using 485 nm excitation and 535 nm emission filters equipped with polarizers. The IC50 may be determined by nonliner regression using two control reactions. […]
In this section we review reported IC50 values for a set of compounds.

C[C@@H]1CN2c3cnc(-c4cncnc4)cc3CC3(C(=O)NC(=O)NC3=O)[C@H]2[C@H](C)O1 (relative stereo)    6 µM

Query block: Give recorded IC50 with Escherichia coli DNA gyrase A/B tetramer (Escherichia coli, UniProt P0AES4+P0AES6) for the following compound: C[C@@H]1CN2c3cnc(-c4ccnn4C)cc3CC3(C(=O)NC(=O)NC3=O)[C@H]2[C@H](C)O1 (relative stereo)
Result block: 9 µM

Query block: Return IC50 measured with Escherichia coli DNA gyrase A/B tetramer (Escherichia coli, UniProt P0AES4+P0AES6) given this compound: Cc1ccccc1-c1cnc2c(c1)CC1(C(=O)NC(=O)NC1=O)[C@H]1[C@H](C)O[C@H](C)CN21 (relative stereo)
Result block: > 83 µM

---

Here, each record is paired with measured IC50 data.
- Subject Of Test: Escherichia coli DNA gyrase A/B tetramer (Escherichia coli, UniProt P0AES4+P0AES6)
- Assay Text: DNA gyrase supercoiling activity fluorescence polarisation assay
- Format: biochemical
The reply should contain only the number, in µM.

C[C@@H]1CN2c3ncc(-c4ccccc4)cc3CC3(C(=O)NC(=O)NC3=O)[C@H]2[C@H](C)O1 (relative stereo) [Example 84]    7
C[C@H]1C[C@@H](C)[C@H]2N(C1)c1cnc(-c3ccn[nH]3)cc1CC21C(=O)NC(=O)NC1=O [Example 117]    1

Query block: Test system Escherichia coli DNA gyrase A/B tetramer (Escherichia coli, UniProt P0AES4+P0AES6); read-out IC50; what value for C[C@@H]1CN2c3ncc(-c4c[nH]cn4)cc3CC3(C(=O)NC(=O)NC3=O)[C@H]2[C@H](C)O1 (relative stereo) [Example 37] ?
Result block: 12

Query block: Give IC50 (Escherichia coli DNA gyrase A/B tetramer (Escherichia coli, UniProt P0AES4+P0AES6)) of the following compound: C[C@@H]1CN2c3ccc(-c4ncco4)nc3CC3(C(=O)NC(=O)NC3=O)[C@H]2[C@H](C)O1 (relative stereo) [Example 98]
Result block: 51

Query block: Param readout = IC50; param system = Escherichia coli DNA gyrase A/B tetramer (Escherichia coli, UniProt P0AES4+P0AES6); param query = Cc1nnc(-c2cc3c(nc2F)N2C[C@@H](C)O[C@@H](C)[C@@H]2C2(C3)C(=O)NC(=O)NC2=O)s1 (relative stereo) [Example 16] ; response: value
Result block: 7

Query block: Give Escherichia coli DNA gyrase A/B tetramer (Escherichia coli, UniProt P0AES4+P0AES6) IC50 for COc1ccncc1-c1cnc2c(c1)CC1(C(=O)NC(=O)NC1=O)[C@H]1[C@H](C)O[C@H](C)CN21 (relative stereo) [Example 43]
Result block: 12

Query block: Observed IC50 on Escherichia coli DNA gyrase A/B tetramer (Escherichia coli, UniProt P0AES4+P0AES6) for CC1C[C@@H](C)[C@H]2N(C1)c1ncc(Br)cc1CC21C(=O)NC(=O)NC1=O (some centres unmarked) [Example 11] , please.
Result block: 30

Query block: Escherichia coli DNA gyrase A/B tetramer (Escherichia coli, UniProt P0AES4+P0AES6) / IC50 / C[C@H]1C[C@@H](C)[C@H]2N(C1)c1c(ccnc1Cl)CC21C(=O)NC(=O)NC1=O [Example 13] : value?
Result block: 25

Query block: Tell me reported IC50 for C[C@@H]1CN2c3ccc(-c4ccccn4)nc3CC3(C(=O)NC(=O)NC3=O)[C@H]2[C@H](C)O1 (racemic) [Example 69] , tested with Escherichia coli DNA gyrase A/B tetramer (Escherichia coli, UniProt P0AES4+P0AES6).
Result block: 29

---

- Subject Of Test: Escherichia coli DNA gyrase A/B tetramer (Escherichia coli, UniProt P0AES4+P0AES6)
- Assay Text: DNA gyrase supercoiling activity fluorescence polarisation assay
- Assay type: biochemical
The entries below come with measured pIC50 values attached.
Remember, pIC50 is on a log scale: it is -log10 of the molar concentration.

As a guide, the following entries are already answered.
C[C@@H]1CN2c3ncc(-c4nc5ccccc5s4)cc3CC3(C(=O)NC(=O)NC3=O)[C@H]2[C@H](C)O1 (relative stereo)    5.40
Cc1ccsc1-c1cnc2c(c1)CC1(C(=O)NC(=O)NC1=O)[C@H]1[C@H](C)O[C@H](C)CN21 (relative stereo)    4.92
C[C@@H]1CN2c3ccc(-c4cncnc4)nc3CC3(C(=O)NC(=O)NC3=O)[C@H]2[C@H](C)O1 (relative stereo)    5.52
Cc1noc(C)c1-c1ccc2c(n1)CC1(C(=O)NC(=O)NC1=O)[C@H]1[C@H](C)O[C@H](C)CN21 (relative stereo)    5.10
COc1cncc(-c2cnc3c(c2)CC2(C(=O)NC(=O)NC2=O)[C@H]2[C@H](C)O[C@H](C)CN32)n1 (relative stereo)    5.40

Query block: Need pIC50 of C[C@@H]1CN2c3cnc(-c4ccoc4)cc3CC3(C(=O)NC(=O)NC3=O)[C@H]2[C@H](C)O1 (relative stereo) , thanks.
Result block: 4.46

Query block: If you can, please state the reported pIC50 value of C[C@@H]1CN2c3cnc(-c4cc5ccccc5o4)cc3CC3(C(=O)NC(=O)NC3=O)[C@H]2[C@H](C)O1 (racemic) .
Result block: 4.80

---

- Subject Of Test: Escherichia coli DNA gyrase A/B tetramer (Escherichia coli, UniProt P0AES4+P0AES6)
- Assay Text: DNA gyrase supercoiling activity fluorescence polarisation assay
- Type: biochemical
- Method: The supercoiling reactions may be quenched by the addition of 10 microliters/well of 40 nM oligodeoxynucleotide probe in 3× triplex-forming buffer consisting of 150 mM NaCl, and 150 mM sodium acetate at pH 3.5. […] After 60 minutes, the fluorescence anisotropy of the BODIPY-FL may be measured in a Tecan Ultra plate reader, using 485 nm excitation and 535 nm emission filters equipped with polarizers. The IC50 may be determined by nonliner regression using two control reactions. […]
In this section we review reported IC50 values for a set of compounds.
Lab book: enter the figure in µM, no units written.

C[C@@H]1CN2c3ncc(-c4ccc(-c5ccn[nH]5)s4)cc3CC3(C(=O)NC(=O)NC3=O)[C@H]2[C@H](C)O1 (relative stereo)    2
Cc1ccc(-c2cnc3c(c2)CC2(C(=O)NC(=O)NC2=O)[C@H]2[C@H](C)O[C@H](C)CN32)s1 (relative stereo)    9

Consider the record given below.
Query block: Request the reported IC50 associated with C[C@@H]1CN2c3cnc(-c4ncco4)cc3CC3(C(=O)NC(=O)NC3=O)[C@H]2[C@H](C)O1 (relative stereo)
Result block: 44
